molecular target: Bcl-xL, Q07817; test: peptide SPOT array, c-Myc-tagged receptor at 1 uM or 100 nM, anti-c-Myc-Cy3
Sequence (Q07817 1-209): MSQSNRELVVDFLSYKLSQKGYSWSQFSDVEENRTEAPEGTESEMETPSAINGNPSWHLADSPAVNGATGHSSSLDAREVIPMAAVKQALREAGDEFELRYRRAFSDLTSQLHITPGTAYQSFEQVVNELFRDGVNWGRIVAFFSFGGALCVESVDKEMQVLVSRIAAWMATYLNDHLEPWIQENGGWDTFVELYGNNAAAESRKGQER
Entries and their SPOT signal as a fraction of Bim BH3's signal on the same receptor and array values follow.
Reply: number alone, nothing else.

Completed entries (count: 4):
binder: EVLAGPLAQRDSHIAEDVGRLVKKSR [ARHGAP4]
recorded-number: 0.04
--
binder: KANLEKVSRTLEDQANEYRVKLEEAQ [MYH6]
recorded-number: 0.02
--
binder: FGEYSGISENDILVGDDFWIPETSFI [ROS1]
recorded-number: 0.07
--
binder: VLSRIEAGRSLKSVMDEFGISKSTFY [TIGD7]
recorded-number: 0.11

Record request: SPOT signal as a fraction of Bim BH3's signal on the same receptor and array value, item NKDGKSVSNRLRRLLDNCGGKVLSIT [KIAA0430]
0.33

Can you look up the measured SPOT signal as a fraction of Bim BH3's signal on the same receptor and array of CILNSFYGYVDRKGARWYSMEMAGIV [POLE] for me?
0.09

Need SPOT signal as a fraction of Bim BH3's signal on the same receptor and array of LCQLSCVSKLMRDVCGSLLQSRGMVI [FBXO30] , thanks.
0.62
